details: in DMF, 313.15 K
metric: solubility (mole fraction)
I'd appreciate a reply containing only the number, no unit.

stdin: solubility (mole fraction) for N#CC(c1ccc(Cl)cc1)c1c(Cl)cc(-n2ncc(=O)[nH]c2=O)cc1Cl (stereo unspecified) ?
stdout: 0.0444

----------
conditions: in ethanol, 288.15 K
metric: solubility (mole fraction)
The response must contain the number and no unit.

stdin: Report solubility (mole fraction) for N#CC(c1ccc(Cl)cc1)c1c(Cl)cc(-n2ncc(=O)[nH]c2=O)cc1Cl (stereo unspecified) please.
stdout: 0.00204

----------
conditions: in n-propanol, 283.15 K
metric: solubility (mole fraction)
Answer with a bare number; do not write a unit.

stdin: What value of solubility (mole fraction) has been reported for the following molecule? N#CC(c1ccc(Cl)cc1)c1c(Cl)cc(-n2ncc(=O)[nH]c2=O)cc1Cl (stereo unspecified)
stdout: 0.00118

Ref: BigSolDB 2.1
